Numbers sourced from patent US20160129089A1.

# % INHIB (inhibitory effect on hGHR mRNA levels) per record follows
Test system: human growth hormone receptor mRNA
Assay: Inhibition of human growth hormone receptor mRNA levels by antisense oligonucleotides, quantitative real-time PCR, MCF7 cells
Assay type: cell-based
Design: concentration or dose not given beside the values
Settings: averages from three experiments
e = 2'-O-(2-methoxyethyl) (MOE); d = 2'-deoxy (DNA)
Give the value in % but do not write % after it.

Fill in: % INHIB (inhibitory effect on hGHR mRNA levels) on human growth hormone receptor mRNA, entry 272337 (antisense AAACATAGCCATTCAATGCT; sugars from the 5' end e5 d10 e5, all phosphorothioate, methylation of C not given here) [compound 272337]
39

Write down measured % INHIB (inhibitory effect on hGHR mRNA levels) (human growth hormone receptor mRNA) for this substance. 227480 (antisense ATGTAAATGTCCTCTTGGTT; sugars from the 5' end e5 d10 e5, all phosphorothioate, methylation of C not given here) [compound 227480]
66

Using human growth hormone receptor mRNA as the test system, report measured % INHIB (inhibitory effect on hGHR mRNA levels) of 272357 (antisense TAGGGTCCATCTTTCAAGAC; sugars from the 5' end e5 d10 e5, all phosphorothioate, methylation of C not given here) [compound 272357] .
62

Provide measured % INHIB (inhibitory effect on hGHR mRNA levels) on human growth hormone receptor mRNA for 227482 (antisense TTCTGTGGTGATGTAAATGT; sugars from the 5' end e5 d10 e5, all phosphorothioate, methylation of C not given here) [compound 227482] please.
53

Send back human growth hormone receptor mRNA % INHIB (inhibitory effect on hGHR mRNA levels) of 272360 (antisense TATTAGTTACCTTGAGGAGA; sugars from the 5' end e5 d10 e5, all phosphorothioate, methylation of C not given here) [compound 272360] only.
0

###

Tested on: human growth hormone receptor mRNA
Test: Inhibition of human growth hormone receptor mRNA levels by antisense oligonucleotides, quantitative real-time PCR, MCF7 cells
Assay type: cell-based
Parameters: concentration or dose not given beside the values
Settings: averages from three experiments
e = 2'-O-(2-methoxyethyl) (MOE); d = 2'-deoxy (DNA)
measureName: % INHIB (inhibitory effect on hGHR mRNA levels) (%)
Field: numeric (%). Do not append units.

Provide the reported % INHIB (inhibitory effect on hGHR mRNA levels) (system: human growth hormone receptor mRNA) for 227489 (antisense TGTTCAGTTGGTCTGTGCTC; sugars from the 5' end e5 d10 e5, all phosphorothioate, methylation of C not given here) [compound 227489]
75

Give % INHIB (inhibitory effect on hGHR mRNA levels) for 272346 (antisense CTCTTGGAGAAAACCATAGC; sugars from the 5' end e5 d10 e5, all phosphorothioate, methylation of C not given here) [compound 272346] tested on human growth hormone receptor mRNA.
67

Under human growth hormone receptor mRNA: report % INHIB (inhibitory effect on hGHR mRNA levels) of 272319 (antisense ATTTTCCTTCCTTGAGGAGA; sugars from the 5' end e5 d10 e5, all phosphorothioate, methylation of C not given here) [compound 272319] .
67

GET % INHIB (inhibitory effect on hGHR mRNA levels) where system = human growth hormone receptor mRNA and item = 272323 (antisense TGTGTCTGATTCCTCAGTCT; sugars from the 5' end e5 d10 e5, all phosphorothioate, methylation of C not given here) [compound 272323]
67

***
# lookup: human growth hormone receptor mRNA % INHIB (inhibitory effect on hGHR mRNA levels), key = 272350 (antisense AGGCTGTTGTGAAATAGTAA; sugars from the 5' end e5 d10 e5, all phosphorothioate, methylation of C not given here) [compound 272350]
67

###

Recorded % INHIB (inhibitory effect on hGHR mRNA levels) values for a group of substances are listed next.
System: human growth hormone receptor mRNA
Experiment: Inhibition of human growth hormone receptor mRNA levels by antisense oligonucleotides, quantitative real-time PCR, MCF7 cells
Type: cell-based
Set-up: concentration or dose not given beside the values
Conditions: averages from three experiments
e = 2'-O-(2-methoxyethyl) (MOE); d = 2'-deoxy (DNA)
Write down the numeric answer in % and omit the unit.

Quote % INHIB (inhibitory effect on hGHR mRNA levels) reported for 272332 (antisense CTCTTTGTCAGGCAAGGGCA; sugars from the 5' end e5 d10 e5, all phosphorothioate, methylation of C not given here) [compound 272332] please.
75

Give the reported value of % INHIB (inhibitory effect on hGHR mRNA levels) for this record: 272349 (antisense AGTCTTCCAAACACACAGCT; sugars from the 5' end e5 d10 e5, all phosphorothioate, methylation of C not given here) [compound 272349]
68

Supply % INHIB (inhibitory effect on hGHR mRNA levels) value. Item: 272312 (antisense GGGTGGATCTGGTTGCACTA; sugars from the 5' end e5 d10 e5, all phosphorothioate, methylation of C not given here) [compound 272312]
57

---
Query % INHIB (inhibitory effect on hGHR mRNA levels) for 272334 (antisense AAGAAAGGCTAAGGCATGAT; sugars from the 5' end e5 d10 e5, all phosphorothioate, methylation of C not given here) [compound 272334]
61

###

Test system: human growth hormone receptor mRNA
Assay: Inhibition of human growth hormone receptor mRNA levels by antisense oligonucleotides, quantitative real-time PCR, MCF7 cells
Type: cell-based
Set-up: concentration or dose not given beside the values
Conditions: averages from three experiments
e = 2'-O-(2-methoxyethyl) (MOE); d = 2'-deoxy (DNA)
measureName: % INHIB (inhibitory effect on hGHR mRNA levels) (%)
# output: bare number, implied unit %

Below, 4 substances whose answers are already recorded.
Give reported % INHIB (inhibitory effect on hGHR mRNA levels) value for 227484 (antisense TGGTAAGGCTTTCTGTGGTG; sugars from the 5' end e5 d10 e5, all phosphorothioate, methylation of C not given here) [compound 227484]
63

Provide one value: measured % INHIB (inhibitory effect on hGHR mRNA levels) of 227500 (antisense CATAGCAGCAAAGTAGCAGA; sugars from the 5' end e5 d10 e5, all phosphorothioate, methylation of C not given here) [compound 227500]
69

Please give measured % INHIB (inhibitory effect on hGHR mRNA levels) of the following entry: 272354 (antisense AGTTATGTGACCCTGATTGA; sugars from the 5' end e5 d10 e5, all phosphorothioate, methylation of C not given here) [compound 272354]
65

Provide only the value of recorded % INHIB (inhibitory effect on hGHR mRNA levels) for 227481 (antisense TGGTGATGTAAATGTCCTCT; sugars from the 5' end e5 d10 e5, all phosphorothioate, methylation of C not given here) [compound 227481]
45

Next:
Please look at this substance and report its % INHIB (inhibitory effect on hGHR mRNA levels): 272316 (antisense AACTCGCCATAATTTCCAGA; sugars from the 5' end e5 d10 e5, all phosphorothioate, methylation of C not given here) [compound 272316]
64

###

Test system: human growth hormone receptor mRNA
Assay: Inhibition of human growth hormone receptor mRNA levels by antisense oligonucleotides, quantitative real-time PCR, MCF7 cells
Type: cell-based
Set-up: concentration or dose not given beside the values
Conditions: averages from three experiments
e = 2'-O-(2-methoxyethyl) (MOE); d = 2'-deoxy (DNA)
Below, each entry is listed with its recorded % INHIB (inhibitory effect on hGHR mRNA levels).
// return numeric value only (unit: %, not printed)

Use these answered entries as a reference point.
Using known records, supply % INHIB (inhibitory effect on hGHR mRNA levels) for 272322 (antisense CTGGCTCATCAATATCTAGC; sugars from the 5' end e5 d10 e5, all phosphorothioate, methylation of C not given here) [compound 272322]
84

Indicate its recorded % INHIB (inhibitory effect on hGHR mRNA levels); the substance in question is 272325 (antisense AAGGCATAAGAGATCTGCTT; sugars from the 5' end e5 d10 e5, all phosphorothioate, methylation of C not given here) [compound 272325]
66

We now examine a further substance.
Return the recorded % INHIB (inhibitory effect on hGHR mRNA levels) value; entry: 272335 (antisense AAATACGTAGCTCTTGGGAA; sugars from the 5' end e5 d10 e5, all phosphorothioate, methylation of C not given here) [compound 272335]
47

###

Collected % INHIB (inhibitory effect on hGHR mRNA levels) values appear next to each entry.
Test system: human growth hormone receptor mRNA
Test: Inhibition of human growth hormone receptor mRNA levels by antisense oligonucleotides, quantitative real-time PCR, MCF7 cells
Format: cell-based
Set-up: concentration or dose not given beside the values
Conditions: averages from three experiments
e = 2'-O-(2-methoxyethyl) (MOE); d = 2'-deoxy (DNA)
Express it in %; write the number only.

Please review the following examples before continuing.
Output reported % INHIB (inhibitory effect on hGHR mRNA levels) of the substance 272333 (antisense GTGCTCACATAGCCACATGA; sugars from the 5' end e5 d10 e5, all phosphorothioate, methylation of C not given here) [compound 272333] on human growth hormone receptor mRNA.
72

Report % INHIB (inhibitory effect on hGHR mRNA levels) on human growth hormone receptor mRNA for this entry: 227501 (antisense GCTATTTTTGGCTATAGAAA; sugars from the 5' end e5 d10 e5, all phosphorothioate, methylation of C not given here) [compound 227501]
64

# return % INHIB (inhibitory effect on hGHR mRNA levels) of 272302 (antisense GATCCATACCTGTAGGACCT; sugars from the 5' end e5 d10 e5, all phosphorothioate, methylation of C not given here) [compound 272302] (system: human growth hormone receptor mRNA)
60

More entries:
For human growth hormone receptor mRNA, give the measured % INHIB (inhibitory effect on hGHR mRNA levels) of the entry 272347 (antisense TCTACACTGATGATACTTTA; sugars from the 5' end e5 d10 e5, all phosphorothioate, methylation of C not given here) [compound 272347]
62

Recall the reported % INHIB (inhibitory effect on hGHR mRNA levels) of 227464 (antisense CCTTTAATCTTTGGAACTGG; sugars from the 5' end e5 d10 e5, all phosphorothioate, methylation of C not given here) [compound 227464] when tested on human growth hormone receptor mRNA.
58
